Where do the numbers come from? From ChEMBL document CHEMBL1151578.

Species on record: Rattus norvegicus
methodNotes: Relaxation of rat aorta smooth muscle
Format: functional, Muscle tissue
Sorting guide: entries reporting Intrinsic activity beneath 80% go in the Fulfilled pile, the rest go in the Not fulfilled pile.

compoundString | assignedCategory
CC1(C)C=C(C(=O)NCC2CC2)c2cc([N+](=O)[O-])ccc2O1 | Not fulfilled
CCCNC(=O)C1=CC(C)(C)Oc2ccc([N+](=O)[O-])cc21 | Fulfilled
CCCCNC(=O)C1=CC(C)(C)Oc2ccc([N+](=O)[O-])cc21 | Not fulfilled

* * *

Species: Rattus norvegicus
methodNotes: Relaxation of rat aorta smooth muscle
Type: functional, Muscle tissue
Collected Intrinsic activity values appear next to each entry.
measureName: Intrinsic activity (%)

compound | measureName | numericReadout
CC1(C)C=C(C(=O)NCCC#N)c2cc([N+](=O)[O-])ccc2O1 | Intrinsic activity | 73.1
CC(N/C(=N\C#N)Nc1ccncc1)C(C)(C)C (stereo not drawn) [PINACIDIL ANHYDROUS] | Intrinsic activity | 91.9
CC1(C)C=C(C(N)=O)c2cc([N+](=O)[O-])ccc2O1 | Intrinsic activity | 79.8
